Source listed as ChEMBL document CHEMBL5550184.

- PROCEDURE_DETAILS: Inhibition of biotin-tagged KRAS G12D mutant (unknown origin) to recombinant His-tagged SOS1 (unknown origin) protein-protein interaction incubated for 120 mins by AlphaLISA method
- Design: species or system Homo sapiens
Starred links: 1 amine or outer side, 2 acyl side, 3 side chain; linkers in the order of their positions; H or OH if unused. Positions of bridges follow the written chain, without caps; N, C: chain ends. Non-standard residues stand in square brackets, D forms with d. Residues, ends and D or L forms follow the SMILES beside them. *: point of attachment. hPhe(3-Cl-4-CF3) = N[C@@H](CCc1ccc(C(F)(F)F)c(Cl)c1)C(=O)O; X2 = CN([C@@H](CC(=O)[*:2])C(=O)n1cccc1)[*:1]; NMePhe(4-Cl) = CN[C@@H](Cc1ccc(Cl)cc1)C(=O)O; X1 = O=C([C@H](CC(=O)[*:2])N[*:1])n1cccc1; Phe(3-Cl) = N[C@@H](Cc1cccc(Cl)c1)C(=O)O; NMeCha = CN[C@@H](CC1CCCCC1)C(=O)O; NMeCba = CN[C@@H](CC1CCC1)C(=O)O; NMeF = CN[C@@H](Cc1ccccc1)C(=O)O; NMeD = CN[C@@H](CC(=O)O)C(=O)O; NMeL = CN[C@@H](CC(C)C)C(=O)O; NMeNle = CCCC[C@H](NC)C(=O)O; NMeV = CN[C@H](C(=O)O)C(C)C; NMeA = CN[C@@H](C)C(=O)O; Piperidide = C1CCN(*)CC1; Ac5c = NC1(C(=O)O)CCCC1; Sar = CNCC(=O)O
Reported pIC50 is given for each of the following compounds.
As a rule, pIC50 stands for the negative log10 of the concentration, concentration in M.

Some solved entries appear below for comparison.
CC[C@H](C)[C@@H]1NC(=O)[C@H](C)N(C)C(=O)C[C@@H](C(=O)n2cccc2)N(C)C(=O)[C@H](CC(C)C)N(C)C(=O)[C@H](Cc2ccccc2)N(C)C(=O)[C@H](Cc2ccccc2)NC(=O)[C@H](Cc2cccc(Cl)c2)NC(=O)CN(C)C(=O)[C@H](Cc2ccc(Cl)cc2)N(C)C(=O)CN(C)C(=O)CN(C)C1=O (cyclo(F[NMeF][NMeL][X2][NMeA]I[Sar][Sar][NMePhe(4-Cl)][Sar][Phe(3-Cl)])) :: 7.44
CCCC[C@H]1C(=O)N(C)[C@H](C(=O)n2cccc2)CC(=O)N(C)[C@@H](C)C(=O)N[C@@H]([C@@H](C)CC)C(=O)N(C)CC(=O)N(C)CC(=O)N(C)[C@@H](Cc2ccc(Cl)cc2)C(=O)N(C)CC(=O)N[C@@H](Cc2cccc(Cl)c2)C(=O)N[C@@H](Cc2ccccc2)C(=O)N(C)[C@@H](Cc2ccccc2)C(=O)N1C (cyclo(F[NMeF][NMeNle][X2][NMeA]I[Sar][Sar][NMePhe(4-Cl)][Sar][Phe(3-Cl)])) :: 6.57
CC[C@H](C)[C@@H]1NC(=O)[C@H](C)N(C)C(=O)C[C@@H](C(=O)n2cccc2)NC(=O)[C@H](CC2CCCCC2)N(C)C(=O)[C@H](Cc2ccccc2)N(C)C(=O)[C@H](Cc2ccccc2)NC(=O)[C@H](Cc2cccc(Cl)c2)NC(=O)CN(C)C(=O)[C@H](Cc2ccc(Cl)cc2)N(C)C(=O)CN(C)C(=O)CN(C)C1=O (cyclo(F[NMeF][NMeCha][X1][NMeA]I[Sar][Sar][NMePhe(4-Cl)][Sar][Phe(3-Cl)])) :: 6.17

Now for another entry.
Query string: Which pIC50 reading was recorded for the compound CC[C@H](C)[C@@H]1NC(=O)[C@H](CC2CCC2)N(C)C(=O)C[C@@H](C(=O)N2CCCCC2)N(C)C(=O)[C@H](C(C)C)N(C)C(=O)C2(CCCC2)NC(=O)[C@@H]2CCCN2C(=O)[C@H](CCc2ccc(C(F)(F)F)c(Cl)c2)NC(=O)CN(C)C(=O)[C@H](CC2CCCCC2)N(C)C(=O)CN(C)C(=O)CN(C)C1=O ([NMeCba]I[Sar][Sar][NMeCha][Sar][hPhe(3-Cl-4-CF3)]P[Ac5c][NMeV][NMeD]-Piperidide; lactam N-11) ?
Result string: 8.00
